# Tested on: EKVX NSCLC
# test_protocol: NCI-60 one-dose screen, 48 h (100 = growth as untreated, 0 = no growth, -100 = all killed)
# run_conditions: 10 µM unless noted
Compounds without any hit were thinned out: in the full panel of roughly 83,000, 20% have a hit. Activity calls are given as the source filed them. The calls were made as follows: active = growth percent below 10; inactive = the rest.
assay_metric: growth

List growth for every entry below, keeping the order given.
1. C=C(C)C(=O)O[C@H]1C[C@@]2(C)OC(=CC2=O)[C@H](C)[C@H](O)[C@H]2OC(=O)C(=C)[C@@H]21
2. Oc1ccc(CSc2nnc(-c3ccncc3)n2-c2ccccc2)c2cccnc12
3. O=C1CC2(CCOCC2)Oc2ncccc21

["73.6% (inactive)", "48.2% (inactive)", "93.5% (inactive)"]

For each of the compounds below, note its growth.
1. COc1ccc(NC2=C(Cl)C(=O)C(C)=C(C)C2=O)cc1
2. Cn1cc(-c2nn3c(=O)cc(-c4ccccc4)nc3s2)c2cc(F)ccc21

31.4% (inactive)
64.3% (inactive)
